# System: LKB1
# Construct: gene STK11
# Test Parameters: concentration: 1 μM, replicates: in singlicate; n = 1
Quantity Kind: %Inh (%)
Note: unit % is implicit; provide only the numeric part.

Before answering, review these 2 worked examples.
[ask] Please report the measured %Inh for `Cc1cccc(-c2nc(-c3ccc(S(C)(=O)=O)cc3)sc2-c2ccnc(NCCc3ccccc3)c2)c1` tested on LKB1.
[reply] 0

[ask] Under LKB1, report %Inh for `Nc1ncnc2[nH]c(-c3ccccc3)nc12`
[reply] 0

Next:
[ask] Report the value of %Inh obtained on LKB1 for `Cc1ccc(NC(=O)Nc2cccc(Cl)c2)cc1-c1ccc(C(=O)Nc2ccncc2)cc1` .
[reply] 0

[ask] State, for LKB1, measured %Inh of the compound listed here: `CN(C)CCN(C)C(=O)c1cc(-c2ccncc2)c(-c2ccc(Cl)c(O)c2)o1.Cl.Cl`
[reply] 0

[ask] Look up LKB1 data: %Inh of `COc1ccc(Nc2nccc(-c3cccc(NC(=O)c4cc5cc(F)ccc5[nH]4)c3)n2)cc1` , then report it.
[reply] 12

[ask] State %Inh (LKB1) of `CC(C)(C)c1ccc(C(=O)Nc2cn3cc(Cl)ccc3n2)cc1` .
[reply] 4

[ask] Please report the measured %Inh for `COc1cccc(-c2cc(-c3c[nH]nc3-c3ccccn3)ccn2)c1` tested on LKB1.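 Note: KINOMEscan kinase panel screen.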
[reply] 1

These measurements were taken from paper PMC5540273.
